target: Oxysterols receptor LXR-alpha (Homo sapiens, UniProt Q13133); test: Agonist activity at LXRalpha ligand binding domain-mediated transcriptional activity in african green monkey CV1 cells co-transfected with Gal4-SRC1 by luciferase reporter assay
Sequence (Q13133 whole entry, the tested form may be a part): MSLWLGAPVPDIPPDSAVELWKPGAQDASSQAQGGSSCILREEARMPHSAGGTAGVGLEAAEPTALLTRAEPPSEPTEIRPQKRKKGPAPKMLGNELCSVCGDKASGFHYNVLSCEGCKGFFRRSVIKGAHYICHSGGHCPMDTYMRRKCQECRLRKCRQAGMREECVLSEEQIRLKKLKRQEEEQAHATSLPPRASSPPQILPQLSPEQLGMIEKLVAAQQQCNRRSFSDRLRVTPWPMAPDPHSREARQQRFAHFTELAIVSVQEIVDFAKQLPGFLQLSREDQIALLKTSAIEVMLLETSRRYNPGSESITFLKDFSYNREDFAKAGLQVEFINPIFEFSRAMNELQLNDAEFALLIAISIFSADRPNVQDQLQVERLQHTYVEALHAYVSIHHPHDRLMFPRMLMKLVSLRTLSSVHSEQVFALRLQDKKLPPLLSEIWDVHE
measured.property: pEC50
Expect pEC50 as a plain number equal to -log10 of the molar concentration.

Please give the measured pEC50 for this compound: CS(=O)(=O)c1cccc(-c2ccc(CN(Cc3ccc(F)cc3Cl)S(=O)(=O)c3ccccc3)cc2)c1 8.00

And then Cc1cc(C)c(S(=O)(=O)N(Cc2ccc(-c3cccc(S(C)(=O)=O)c3)cc2)Cc2ccc(F)cc2Cl)c(C)c1 , what is it? 6.90

* * *

// values below are pIC50; system is Oxysterols receptor LXR-beta (Homo sapiens)
Sequence (P55055 whole entry): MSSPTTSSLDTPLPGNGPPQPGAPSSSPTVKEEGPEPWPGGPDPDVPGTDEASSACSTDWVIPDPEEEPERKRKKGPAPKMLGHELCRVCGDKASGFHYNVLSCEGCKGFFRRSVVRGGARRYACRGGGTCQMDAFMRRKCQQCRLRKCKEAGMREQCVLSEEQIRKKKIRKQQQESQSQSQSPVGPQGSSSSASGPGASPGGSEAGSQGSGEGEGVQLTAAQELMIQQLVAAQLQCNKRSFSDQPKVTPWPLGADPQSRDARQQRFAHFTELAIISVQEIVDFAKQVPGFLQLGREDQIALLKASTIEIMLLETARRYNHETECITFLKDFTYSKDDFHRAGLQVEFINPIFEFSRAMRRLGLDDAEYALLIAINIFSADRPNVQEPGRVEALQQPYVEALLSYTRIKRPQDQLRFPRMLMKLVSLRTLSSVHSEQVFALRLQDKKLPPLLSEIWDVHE
Just so you know, pIC50 here is -log10 of the concentration in molar units; reply with that number alone.

Cc1cc(C)c(S(=O)(=O)N(Cc2ccc(-c3cccc(S(C)(=O)=O)c3)cc2)Cc2ccc(C(F)(F)F)o2)c(C)c1 7.50

Reported pIC50, compound O=C(O)Cc1cccc(OCCCN(Cc2cccc(C(F)(F)F)c2Cl)CC(c2ccccc2)c2ccccc2)c1 : ____ 7.70

* * *

Examples of compounds with documented pEC50 follow.
biological target: Oxysterols receptor LXR-alpha (Homo sapiens); assay: Agonist activity at LXRalpha ligand binding domain-mediated transcriptional activity in african green monkey CV1 cells co-transfected with Gal4-SRC1 by luciferase reporter assay
A value of pEC50 is the negative decimal logarithm of a concentration given in moles per litre.

CS(=O)(=O)c1cccc(-c2ccc(CN(Cc3c(F)cccc3Cl)S(=O)(=O)C3CC3)cc2)c1 7.00
Cc1ccccc1S(=O)(=O)N(Cc1ccc(-c2cccc(S(C)(=O)=O)c2)cc1)Cc1c(F)cccc1Cl 7.90
Cc1cc(C)c(S(=O)(=O)N(Cc2ccc(-c3cccc(S(C)(=O)=O)c3)cc2)Cc2c(F)cccc2Cl)c(C)c1 7.10
CS(=O)(=O)c1cccc(-c2ccc(CN(Cc3c(F)cccc3Cl)S(=O)(=O)c3ccccc3)cc2)c1 8.20

Pending compound:
// pEC50 lookup, key: Cn1cnc(S(=O)(=O)N(Cc2ccc(-c3cccc(S(C)(=O)=O)c3)cc2)Cc2c(F)cccc2Cl)c1 7.10
